Target: Carbonic anhydrase 7 (Homo sapiens, UniProt P43166)
Sequence (P43166 whole entry): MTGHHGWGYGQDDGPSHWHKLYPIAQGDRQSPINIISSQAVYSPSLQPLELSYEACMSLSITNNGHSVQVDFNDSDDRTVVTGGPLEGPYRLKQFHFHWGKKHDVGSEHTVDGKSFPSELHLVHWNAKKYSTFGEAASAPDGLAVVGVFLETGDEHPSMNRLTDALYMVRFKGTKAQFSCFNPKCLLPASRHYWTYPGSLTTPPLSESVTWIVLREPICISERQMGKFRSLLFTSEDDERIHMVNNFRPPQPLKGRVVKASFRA
Criterion: Ki strictly less than 4 nM. Met: 1.0. Not met: 0.0.

compound: CC(=O)OC[C@H]1O[C@@H]([Se]c2ccc(S(N)(=O)=O)cc2)[C@H](OC(C)=O)[C@@H](OC(C)=O)[C@@H]1OC(C)=O
target-entity: Carbonic anhydrase 7 (Homo sapiens, UniProt P43166)
label: 0.0
--
compound: Nc1cc([Se][C@@H]2O[C@H](CO)[C@@H](O)[C@H](O)[C@H]2O)ccc1S(N)(=O)=O
target-entity: Carbonic anhydrase 7 (Homo sapiens, UniProt P43166)
label: 0.0
--
compound: CC(=O)OC[C@H]1O[C@@H]([Se]c2ccc(S(N)(=O)=O)cc2)[C@H](OC(C)=O)[C@@H](OC(C)=O)[C@H]1OC(C)=O
target-entity: Carbonic anhydrase 7 (Homo sapiens, UniProt P43166)
label: 1.0
--
compound: NS(=O)(=O)c1ccc(NC(=S)Nc2ccc([Se][C@@H]3O[C@H](CO)C(O)[C@H](O)[C@H]3O)cc2)cc1 (single isomer, unassigned; 16b)
target-entity: Carbonic anhydrase 7 (Homo sapiens, UniProt P43166)
label: 1.0
--
compound: NS(=O)(=O)c1ccc([Se][C@@H]2O[C@H](CO)[C@@H](O)[C@H](O)[C@H]2O)cc1
target-entity: Carbonic anhydrase 7 (Homo sapiens, UniProt P43166)
label: 0.0
--
compound: NS(=O)(=O)c1ccc(NC(=S)Nc2ccc([Se][C@@H]3O[C@H](CO)C(O)[C@H](O)[C@H]3O)cc2)cc1 (single isomer, unassigned; 16a)
target-entity: Carbonic anhydrase 7 (Homo sapiens, UniProt P43166)
label: 0.0
--
compound: NS(=O)(=O)c1ccc([Se][C@@H]2O[C@H](CO)[C@H](O)[C@H](O)[C@H]2O)cc1
target-entity: Carbonic anhydrase 7 (Homo sapiens, UniProt P43166)
label: 0.0
--
compound: CC(=O)O[C@H]1[C@@H](OC(C)=O)[C@@H](CO)O[C@@H]([Se]c2ccc(S(N)(=O)=O)c(N)c2)[C@@H]1OC(C)=O
target-entity: Carbonic anhydrase 7 (Homo sapiens, UniProt P43166)
label: 0.0

# input for lookup
# input Here's an entry: CC(=O)OC[C@H]1O[C@@H]([Se]c2ccc(NC(=O)c3ccc(S(N)(=O)=O)cc3)cc2)[C@H](OC(C)=O)[C@@H](OC(C)=O)[C@@H]1OC(C)=O . Is its Ki below 4 nM?
# output 1.0

All figures here come from ChEMBL document CHEMBL5331139.
